Each item that follows carries a reported EC50.
Target: MK2 (Homo sapiens (Human), UniProt P49137)
Sequence (P49137 whole entry): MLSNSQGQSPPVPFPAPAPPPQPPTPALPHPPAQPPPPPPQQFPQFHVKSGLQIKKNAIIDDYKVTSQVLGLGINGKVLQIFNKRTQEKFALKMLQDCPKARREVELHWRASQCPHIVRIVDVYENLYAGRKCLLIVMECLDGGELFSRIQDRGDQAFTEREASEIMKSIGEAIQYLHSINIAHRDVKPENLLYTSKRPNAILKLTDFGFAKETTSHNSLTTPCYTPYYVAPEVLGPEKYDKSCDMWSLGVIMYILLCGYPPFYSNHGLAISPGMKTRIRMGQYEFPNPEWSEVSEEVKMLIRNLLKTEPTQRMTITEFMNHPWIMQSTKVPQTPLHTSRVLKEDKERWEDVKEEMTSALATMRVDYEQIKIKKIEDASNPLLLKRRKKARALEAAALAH
Assay: MK2 cellular assay (Hsp27 phosphorylation in Thp-1 cells)
Details: differentiated Thp-1 cells, compound 1 hour, 50 ng/ml LPS 15 minutes, phosphorylation of Hsp27; read-out: MK2EC50
Experimental: Compounds were assayed in Thp-1 human acute monocytic leukemia cells to measure inhibition of MK2 activity. Thp-1 were grown in suspension in T225 flasks. Two days prior to assay, Thp-1 cells were spun down, counted and plated at 1×10^6 cells per well of a 12 well plate in complete media containing 10 ng/ml PMA (phorbol myristate acetate) to differentiate the cells. On day of assay, cells were washed with complete media, and compound was added to differentiated Thp-1 cells for 1 hour. […]

// returns reported EC50 for input C=CC(=O)Nc1cc(-c2cc3c(cn2)CCc2c-3[nH]c3c2C(=O)NC2(CC2)C3)cnc1OC [II-5]
< 100 nM

// returns reported EC50 for input C=CC(=O)Nc1cc(-c2ncc3c(n2)-c2[nH]c4c(c2CC3)C(=O)NCC4)ccc1OCCOC [II-15]
< 100 nM

// returns reported EC50 for input C=CC(=O)Nc1cc(-c2cc3c(cn2)CCc2c-3[nH]c3c2C(=O)NC2(CC2)C3)ccc1F [II-6]
< 100 nM
